- protocol_details: Half life in Cynomolgus monkey at iv administration
- Format: ADME, organism-based, Macaca fascicularis
- measurement_context: in vivo
readout: half-life (min)
Lab book: enter the figure in min, no units written.

Q: Requested field: half-life. Item: CC(C)Oc1nc2nc(C34COC(C)(C3)C4)cn2cc1C(=O)Nc1cccn(C2CC2)c1=O
Ans: 48

====

- protocol_details: Oral bioavailability in rat
- Type: ADME, organism-based
- measurement_context: in vivo
readout: bioavailability (%)
Lab book: enter the figure in %, no units written.

Q: Requested field: bioavailability. Item: CC(C)Oc1nc2nc(C34COC(C)(C3)C4)cn2cc1C(=O)Nc1cccn(C2CC2)c1=O
Ans: 128
